Source: patent US20260167721A1

pKd by entry:
# TARGET_DESC: T1, recombinant human CD3 epsilon/gamma heterodimer (human, UniProt P07766 23-126; P09693 23-116)
# T1 construct: Recombinant heterodimer used as analyte in Octet; also called hCD3 E/G
# ASSAY_EXPLANATION: BLI (Octet), mAb 5 ug/mL on FAB2G sensor, hCD3 E/G 200-50 nM;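 also: antibodies purified from hybridoma supernatants, measured by Octet binding to recombinant human CD3 protein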
Please keep in mind that pKd is minus log10 of the molar concentration; only the number is needed.

{"BINDER": "ABL-CD3-81 (antibody, V domains shown, mAb purified from hybridoma; chimeric AlivaMab IgG (human VH, CH1 and upper hinge; mouse middle hinge, CH2, CH3; human light chain)) VH: QVQLQESGPGLVKPSQTLSLTCTVSGGSISSGGYYWSWIRQHPGKGLEWIGYIYYSGSTYYNPSLKSRVTISVDTSKDQFSLKLSSVTAADTAVYYCARERKTSLPFDIWGQGTMVTVSS VL: NFMLTQPHSVSESPGKTVTISCTRSSGSIASNYVQWYQQRPGSSPTTVIYEDNQRPSGVPDRFSGSIDSSSNSASLTISGLKTEDEAYYYCQSFDSSNRVFGGGTKLTVL", "VALUE": 6.04}
{"BINDER": "ABL-CD3-78 (antibody, V domains shown, mAb purified from hybridoma; chimeric AlivaMab IgG (human VH, CH1 and upper hinge; mouse middle hinge, CH2, CH3; human light chain)) VH: EVQLVESGGGLVKPGGSLRLSCAASGFTVSNYSMNWVRQAPGKGLEWVSCISRSSSYIYYADSVKGRFTISRDNAKNSLFLQMNSLRAEDTAVYYCARERWELLYFDYWGQGTLVTVSS VL: NFMLTQPHSVSESPGKTVTISCTRSSGSIASNYVQWYQQRPGSSPTTVIYEDNQRPSGVPDRFSGSIDSSSNSASLTISGLKTEDEADYYCQSFDGSNRVFGGGTKLTVL", "VALUE": 7.67}

Note: attention shifts to another entry.
Request: Could you please provide reported pKd for ABL-CD3-66 (antibody, V domains shown, mAb purified from hybridoma; chimeric AlivaMab IgG (human VH, CH1 and upper hinge; mouse middle hinge, CH2, CH3; human light chain)) VH: QVQLQESGPGLVKPSETLSLTCTVSGGSISSYYWSWIRQPAGKGLEWIGRIYASGSTYYNPSLKSRVTMSVDTSKNQFSLKLSSVTAADTAVYYCAREKRSRLYFDYWGQGTLVTVSS VL: NFMLTQPHSVSESPGKTVTISCTRSSGSIASNYVQWYQQRPGSSPTTVIYEDNQRPSGVPDRFSGSIDSSSNSASLTISGLKTEDEGDYYCQSYDRSNRVFGGGTKLTVL ? Thanks!
Response: 7.03
